# target: T1, human GFRAL (human, UniProt Q6UXV0 19-394)
# T1 sequence (looked up): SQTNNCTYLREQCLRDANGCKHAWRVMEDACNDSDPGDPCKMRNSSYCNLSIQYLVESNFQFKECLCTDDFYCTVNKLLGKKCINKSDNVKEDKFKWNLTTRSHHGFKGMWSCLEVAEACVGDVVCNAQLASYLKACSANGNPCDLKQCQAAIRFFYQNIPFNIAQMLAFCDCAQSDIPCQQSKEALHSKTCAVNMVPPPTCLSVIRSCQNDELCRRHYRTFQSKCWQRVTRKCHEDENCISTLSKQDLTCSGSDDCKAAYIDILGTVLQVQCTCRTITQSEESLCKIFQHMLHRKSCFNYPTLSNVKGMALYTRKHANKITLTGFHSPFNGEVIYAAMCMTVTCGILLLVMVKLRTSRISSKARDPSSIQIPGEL
# assay_summary: cell-based or functional assay
measured_property: GDF15 activity (EC50, pM)
Express it in pM; write the number only.

binder: MLC027 (ligand, Moiety A (HOOC-(CH2)16-CO-gGlu-2XADO) on 55K of Linker (86K of fusion polypeptide)) HGEGTFTSDVSSYLEEQAAREFIAWLVRGGGGAQPGAQPGAQPGAQPGAQPGAQPGAQPGAQPGQEPGAQPGQEPGAQPGQEPGQKPGQEPGQEPGQEPGQEPGAQPGAQPARQGDHCPLGPGRCCRLHTVRASLEDLGWADWVLSPREVQVTMCIGACPSQFRAANLHAQIKTSLHRLRPDTVPAPCCVPASYNPMVLIQRTDTGVSLQTYDDLLARDCHCI
GDF15 activity (EC50, pM): 45.4

binder: MLC013 (ligand, Moiety A (HOOC-(CH2)16-CO-gGlu-2XADO) on 1K of Linker (32K of fusion polypeptide)) HGEGTFTSDVSSYLEEQAAREFIAWLVRGGGKQEPGAQPGQEPGAQPGQEPGAQPGQEPGAQPGQEPGAQPGQEPGAQPGAQPGAQPGAQPGAQPGAQPGAQPGAQPGAQPARQGDHCPLGPGRCCRLHTVRASLEDLGWADWVLSPREVQVTMCIGACPSQFRAANLHAQIKTSLHRLRPDTVPAPCCVPASYNPMVLIQRTDTGVSLQTYDDLLARDCHCI
GDF15 activity (EC50, pM): 48.8

binder: Native GDF15 (ligand) ARNGDHCPLGPGRCCRLHTVRASLEDLGWADWVLSPREVQVTMCIGACPSQFRAANMHAQIKTSLHRLKPDTVPAPCCVPASYNPMVLIQKTDTGVSLQTYDDLLAKDCHCI
GDF15 activity (EC50, pM): 8.1

binder: MLC090 (ligand, Moiety C (HOOC-(CH2)20-CO-gGlu-2XADO-EDA-CO-CH2) on 39C of Linker (70C of fusion polypeptide)) HGEGTFTSDVSSYLEEQAAKEFIAWLVRGGGGAQPGAQPGAQPGAQPGAQPGAQPGAQPGAQPGQEPGQCPGQEPGAQPGQEPGAQPGQEPGAQPGQEPGAQPGQEPGAQPARQGDHCPLGPGRCCRLHTVRASLEDLGWADWVLSPREVQVTMCIGACPSQFRAANLHAQIKTSLHRLKPDTVPAPCCVPASYNPMVLIQKTDTGVSLQTYDDLLAKDCHCI
GDF15 activity (EC50, pM): 23.6

binder: MLC008 (ligand, Moiety A (HOOC-(CH2)16-CO-gGlu-2XADO) on 6K of Linker (37K of fusion polypeptide)) HGEGTFTSDVSSYLEEQAAREFIAWLVRGGGGQEPGKEPGQEPGQEPGQEPGQEPGQEPGQEPGAQPGAQPARQGDHCPLGPGRCCRLHTVRASLEDLGWADWVLSPREVQVTMCIGACPSQFRAANLHAQIKTSLHRLRPDTVPAPCCVPASYNPMVLIQRTDTGVSLQTYDDLLARDCHCI
GDF15 activity (EC50, pM): 15.3

Turning now to a further record.
Sample MLC006 (ligand, Moiety A (HOOC-(CH2)16-CO-gGlu-2XADO) on 36K of GLP-1 (30K of fusion polypeptide)) HGEGTFTSDVSSYLEEQAAREFIAWLVRGKGGQEPGQEPGQEPGQEPGQEPGQEPGQEPGQEPGAQPGAQPARQGDHCPLGPGRCCRLHTVRASLEDLGWADWVLSPREVQVTMCIGACPSQFRAANLHAQIKTSLHRLRPDTVPAPCCVPASYNPMVLIQRTDTGVSLQTYDDLLARDCHCI ; GDF15 activity (EC50, pM) observed: 11.6
